Experiment: Aqueous solubility of the compound in phosphate buffered saline
Assay type: physicochemical
Conditions: phosphate buffered saline; read-out: solubility
OBSERVATION TYPE: solubility

O=C(c1ccc(Cl)cc1)N1CCN(c2ccnc3cc(Cl)ccc23)CC1 has a reported solubility of < 5 µM
